biological target: human NLRP3 (Homo sapiens); construct: Human whole blood is drawn from healthy volunteers after obtaining written informed consent; from tissue; host or cells: human whole blood from healthy volunteers (heparin lithium tubes); assay: Human whole blood (hWB) NLRP3 assay (IL-1β release after LPS priming and ATP activation); type: cell-based; details: human whole blood, LPS 1 μg/ml priming, ATP activation; Table C, class symbols; read-out: hWB IL-1β IC50
Sequence (Q96P20 whole entry): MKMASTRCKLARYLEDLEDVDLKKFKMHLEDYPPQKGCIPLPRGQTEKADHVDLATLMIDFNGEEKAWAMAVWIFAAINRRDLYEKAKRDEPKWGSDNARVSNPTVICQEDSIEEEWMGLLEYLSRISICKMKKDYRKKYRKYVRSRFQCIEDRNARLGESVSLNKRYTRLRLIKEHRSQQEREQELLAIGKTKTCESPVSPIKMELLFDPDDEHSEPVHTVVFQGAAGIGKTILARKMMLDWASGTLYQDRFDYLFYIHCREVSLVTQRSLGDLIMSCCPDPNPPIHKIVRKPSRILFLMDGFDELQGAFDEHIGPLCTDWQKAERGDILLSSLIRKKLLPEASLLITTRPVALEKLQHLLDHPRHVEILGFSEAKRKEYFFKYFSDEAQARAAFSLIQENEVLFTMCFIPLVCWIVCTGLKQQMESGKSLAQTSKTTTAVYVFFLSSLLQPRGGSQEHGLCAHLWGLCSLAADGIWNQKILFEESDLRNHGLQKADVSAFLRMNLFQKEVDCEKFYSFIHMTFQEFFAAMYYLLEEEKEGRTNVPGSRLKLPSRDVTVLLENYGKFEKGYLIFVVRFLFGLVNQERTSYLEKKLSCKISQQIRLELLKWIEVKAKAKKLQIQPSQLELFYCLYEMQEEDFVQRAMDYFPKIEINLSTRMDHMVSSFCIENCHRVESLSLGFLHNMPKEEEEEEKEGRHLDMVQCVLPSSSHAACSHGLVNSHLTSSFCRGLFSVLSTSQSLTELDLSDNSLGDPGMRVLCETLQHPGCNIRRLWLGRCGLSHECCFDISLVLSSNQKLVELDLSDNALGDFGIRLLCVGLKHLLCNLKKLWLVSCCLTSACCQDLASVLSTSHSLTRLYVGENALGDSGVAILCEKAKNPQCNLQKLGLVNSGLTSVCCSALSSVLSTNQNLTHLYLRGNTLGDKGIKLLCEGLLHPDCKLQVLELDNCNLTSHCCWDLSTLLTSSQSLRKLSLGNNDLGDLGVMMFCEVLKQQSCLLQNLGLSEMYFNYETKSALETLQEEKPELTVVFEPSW
Reported IC50 values are given for each entry in this list.

Below: 2 compounds and their reported IC50.
compound	endpoint.value
CC1(C)C(=O)N(c2ccnn(CCCC(=O)O)c2=O)c2c(F)cc(C3CC3)c(F)c21	500 to 1000 nM
CC1(C)C(=O)N(c2cccn(CCCC(=O)O)c2=O)c2c(O)cc(Cl)cc21	1000 to 10000 nM

What the record says about C[C@H](CC(=O)O)CN1CC[C@H](N2C(=O)C(C)(C)c3c(F)c(C4CC4)cc(F)c32)C1=O (single isomer, unassigned) [Compound 26D*] : IC50 is ≥ 10000 nM

What the record says about CC1(C)C(=O)N(c2nccn(CCCC(=O)O)c2=O)c2c(F)cc(C(F)(F)F)c(F)c21 : IC50 is 500 to 1000 nM

What the record says about CC1(C)C(=O)N([C@@H]2CCN(CCCC(=O)O)C2=O)c2c(F)cc(C(F)(F)F)c(F)c21 (stereo in doubt) [Compound 19A*] : IC50 is < 300 nM

What the record says about CC1(C)C(=O)N(c2cccn(CCCC(=O)O)c2=O)c2c(F)cc(C3CC3)c(F)c21 : IC50 is 1000 to 10000 nM

src = patent US20260285831A1
